Measurement Target: human vasopressin V2 receptor subtype (Homo sapiens)
Sequence (P30518 whole entry): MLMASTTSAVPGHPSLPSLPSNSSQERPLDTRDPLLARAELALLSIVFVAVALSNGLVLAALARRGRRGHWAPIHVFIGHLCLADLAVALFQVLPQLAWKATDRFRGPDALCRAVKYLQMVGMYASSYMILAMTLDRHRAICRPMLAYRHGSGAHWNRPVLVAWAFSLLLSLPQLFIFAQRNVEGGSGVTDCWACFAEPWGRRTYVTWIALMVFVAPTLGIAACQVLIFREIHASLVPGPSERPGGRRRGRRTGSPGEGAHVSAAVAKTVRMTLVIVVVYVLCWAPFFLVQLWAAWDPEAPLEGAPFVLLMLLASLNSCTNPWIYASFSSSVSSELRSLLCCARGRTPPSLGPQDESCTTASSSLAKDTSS
Protocol Description: Vasopressin binding in CHO cell membranes expressing human vasopressin V2 subtype receptors
Setup Conditions: [3H]arginine vasopressin, value in parentheses
pIC50: −log10 of the molar value.

Compound: COc1cc(C2=CCCCC2)c(Cl)cc1C(=O)N1Cc2ccc(C(=O)N(C)Cc3cccnc3)n2Cc2ccccc21 [Example 1]
pIC50: 5.93

Compound: COc1cc(C2=CCCCC2)c(Cl)cc1C(=O)N1Cc2ccc(C(=O)N(C)Cc3cccnc3)n2Cc2ccccc21 [Example 2, hemihydrate]
pIC50: 5.85

---

Measurement Target: human vasopressin V1a receptor subtype (Homo sapiens)
Construct: host or cells: CHO cells, stably transfected (pZeoSV vector for the Thibonnier cells)
Sequence (P37288 whole entry): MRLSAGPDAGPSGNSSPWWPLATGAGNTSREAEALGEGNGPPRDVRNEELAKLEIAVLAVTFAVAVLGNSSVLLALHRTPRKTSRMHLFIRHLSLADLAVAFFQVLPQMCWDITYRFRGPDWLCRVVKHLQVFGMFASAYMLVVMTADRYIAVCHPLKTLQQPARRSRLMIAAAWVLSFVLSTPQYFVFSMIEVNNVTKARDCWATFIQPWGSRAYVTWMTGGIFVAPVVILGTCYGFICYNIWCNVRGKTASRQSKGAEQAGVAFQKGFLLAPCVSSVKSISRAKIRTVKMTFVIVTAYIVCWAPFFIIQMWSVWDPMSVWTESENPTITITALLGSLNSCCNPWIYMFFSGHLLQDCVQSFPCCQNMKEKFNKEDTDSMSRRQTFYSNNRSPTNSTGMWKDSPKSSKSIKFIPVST
Protocol Description: Vasopressin binding in CHO cell membranes expressing human vasopressin V1a subtype receptors
Setup Conditions: 100 nM, [3H]Manning ligand
# cutoff 50% applies to V1a % inhibition @ 100 nM; >= gives True, < gives False

Molecule: Cc1cc(C(=O)N2Cc3ccc(C(=O)N4CCN(c5ccccn5)CC4)n3Cc3ccccc32)ccc1C1=CCCCC1 [Example 9]
Class: False
//
Molecule: CC1=C(c2ccc(C(=O)N3Cc4ccc(C(=O)N(C)Cc5cccnc5)n4Cc4ccccc43)cc2C)CCC[C@H]1O [Example 3]
Class: False
//
Molecule: Cc1cc(C(=O)N2Cc3ccc(C(=O)N(C)CCc4ccccn4)n3Cc3ccccc32)ccc1C1=CCCCC1 [Example 8]
Class: False
//
Molecule: Cc1cc(C(=O)N2Cc3ccc(C(=O)N(C)Cc4cccnc4)n3Cc3ccccc32)ccc1C1=CCCCC1 [Example 11]
Class: True
//
Molecule: Cc1cc(C(=O)N2Cc3ccc(C(=O)N4CCN(c5ccncc5)CC4)n3Cc3ccccc32)ccc1C1=CCCCC1 [Example 12]
Class: True
//
Molecule: Cc1cc(C(=O)N2Cc3ccc(C(=O)NCc4ccccn4)n3Cc3ccccc32)ccc1C1=CCCCC1 [Example 5]
Class: False
